Source of measurements: patent US20120277143A1

Target: T1, human IL4 (human, UniProt P05112 25-153, biotinylated in the SPR and competition assays (sites not given))
T1 sequence: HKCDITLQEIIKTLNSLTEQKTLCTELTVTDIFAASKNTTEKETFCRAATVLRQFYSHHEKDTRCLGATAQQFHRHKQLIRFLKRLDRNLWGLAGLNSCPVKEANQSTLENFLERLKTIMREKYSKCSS
Experiment: cell-based or functional assay

{"binder": "C01_6G9_V1_C06_53G6_V1 (designed binder, bispecific IL13/IL4 ankyrin repeat protein with (GGGGS)4 linker; also called bispecific AR protein) DLDKKLLEAARAGQDDEVRILMANGADVNARDSYGSTPLHLAAREGHLEIVEVLLKYGADVNAADFIGDTPLHLAAYRGHLEIVEVLLKYGADVNASDITGETPLHLAAQIGHLEIVEVLLKHGADVNAQDKFGKTAFDISIDNGNEDLAEILQKLNGGGGSGGGGSGGGGSGGGGSDLGKKLLEAARAGQDDEVRILMANGADVNATDDWGDTLLHLAATDGHLEIVEVLLKAGADVNANDAIGDTPLHLAALYGHLEIVEVLLKYGADVNATDLHGFTPLHLAAFWGHLEIVEVLLKHGADVNAQDKFGKTAFDISIDNGNEDLAEILQKLN", "output unit": "pM", "HEK stat6 hIL4 IC50": 0.5}
